Assignment: determine reported inhibition at 2 µM for the given compounds.
- methodSummary: HepG2 cytotoxicity screening (CellTiter-Glo)
- testParameters: human, uninfected HepG2-A16-CD81 (EGFP) hepatocytes
State the answer as a number, implicitly in %.

Give the measured inhibition at 2 µM of O=C(Nc1ccc(Cl)cn1)c1nn(C2CCS(=O)(=O)C2)c2c1CCCC2 (stereo not drawn) [UCSD-0749819] .
-5.58

Give the measured inhibition at 2 µM of CCS(=O)(=O)N(C)c1ccc(C(=O)N2CCCC(C)C2)cc1 (stereo not drawn) [UCSD-0838984] .
8.06

Give the measured inhibition at 2 µM of c1nc(N2CCCC(Cn3cncn3)C2)c2sccc2n1 (stereo not drawn) [UCSD-0620442] .
1.85

Give the measured inhibition at 2 µM of COc1ccc(C(=O)C2CCCN(c3cc(OC)ncn3)C2)c(C)c1 (stereo not drawn) [UCSD-0833269] .
27.4

Give the measured inhibition at 2 µM of CCS(=O)(=O)N1CCc2ccc(NC(=O)Nc3cccc(SC)c3)cc21 [UCSD-0795016] .
0

Give the measured inhibition at 2 µM of NCC1CCN(C2CCN(c3ccc(-c4ccco4)cc3)CC2)C1 (stereo not drawn) [UCSD-0833151] .
3.93

Give the measured inhibition at 2 µM of CCc1nnsc1C(=O)NC1CCN(CCOc2ccc(Br)cc2)CC1 [UCSD-0818165] .
23.1

Give the measured inhibition at 2 µM of CC(C)(C)OC(=O)N1CCCN(Cc2ccon2)c2ccccc21 [UCSD-0805052] .
10.4

Give the measured inhibition at 2 µM of CC(C)(C)c1ncc(C(=O)NCCSc2ccccn2)c(O)n1 [UCSD-0828026] .
27.1

Give the measured inhibition at 2 µM of CCOc1ccc(S(=O)(=O)Nc2cnc(OC)nc2OC)cc1 [UCSD-0788088] .
4.64

Give the measured inhibition at 2 µM of C[C@H](c1ccc(F)cc1)n1c(C2CCN(C)CC2)n[nH]c1=O [UCSD-0830237] .
3.06

Give the measured inhibition at 2 µM of Cc1csc2ncnc(N3CCC(Cn4cc(C(C)(C)O)nn4)CC3)c12 [UCSD-0835726] .
4.96

Give the measured inhibition at 2 µM of CC(C)CN1CCCC1c1ccc(C(=O)Nc2cccnc2)s1 (stereo not drawn) [UCSD-0828121] .
3.83

Give the measured inhibition at 2 µM of COCc1noc(-c2ccc(N3CCCCC3CO)nc2)n1 (stereo not drawn) [UCSD-0838277] .
-1.51

Give the measured inhibition at 2 µM of Cn1cnnc1S(=O)(=O)C1CCN(S(=O)(=O)c2ccc(F)c(Cl)c2)CC1 [UCSD-0795178] .
2.47

Give the measured inhibition at 2 µM of Cc1nn(C)c(Cl)c1C1CCCN1C(=O)c1ccc(C(N)=O)cn1 (stereo not drawn) [UCSD-0841146] .
26.8

Give the measured inhibition at 2 µM of CN1CCN(CCc2ncnn2-c2ccc3c(c2)OCO3)CC1 [UCSD-0825202] .
8.32

Give the measured inhibition at 2 µM of Cc1cc(Br)cnc1NCCN1CCC(N(C)C)CC1 [UCSD-0818517] .
4.34

Give the measured inhibition at 2 µM of COc1ccc2cc(C3CN(C(=O)CCNC(C)=O)CCO3)ccc2c1 (stereo not drawn) [UCSD-0829391] .
-3.5

Give the measured inhibition at 2 µM of CCCc1cncnc1N1CCC(NCc2cc3ccccc3[nH]2)CC1 [UCSD-0834906] .
7.01

Give the measured inhibition at 2 µM of CCCNC(=O)CN1CCOC(CC)C1 (stereo not drawn) [UCSD-0814421] .
-1.44

Give the measured inhibition at 2 µM of CCS(=O)(=O)N1CCc2ccc(NC(=O)Nc3cccc(F)c3)cc21 [UCSD-0785772] .
17.6

Give the measured inhibition at 2 µM of Cc1n[nH]cc1CNC1CCN(c2cccc(C(F)(F)F)c2)CC1 [UCSD-0814169] .
-9.01

Give the measured inhibition at 2 µM of COC(=O)CSCc1noc(-c2ccc(C)cc2)n1 [UCSD-0807935] .
-4.01

Give the measured inhibition at 2 µM of Cc1[nH]/c(=N\C(=O)c2csc(NC3CCCC3)n2)sc1C [UCSD-0752597] .
8

Give the measured inhibition at 2 µM of CN(C)S(=O)(=O)c1csc(C(=O)N2CCSCC2)c1 [UCSD-0836661] .
3.97

Give the measured inhibition at 2 µM of Cc1cc(C)cc(CN2CCN(Cc3cccc(CCN)c3)CC2=O)c1 [UCSD-0834514] .
-1.16

Give the measured inhibition at 2 µM of c1ccc(OCCNc2ncnc3sc4c(c23)CCNC4)cc1 [UCSD-0829760] .
-2.42

Give the measured inhibition at 2 µM of CCS(=O)(=O)N1CCc2ccc(NC(=O)Nc3cccc(C)c3)cc21 [UCSD-0785768] .
27.5

Give the measured inhibition at 2 µM of COc1cccc(-c2noc3c2CN(c2ncnc4c2CCC4)CC3)c1 [UCSD-0837523] .
-0.62

Give the measured inhibition at 2 µM of CN1CCCC(CCC(=O)N2CCc3sc(C(=O)N(C)C)cc3C2)C1 (stereo not drawn) [UCSD-0833754] .
-1.19

Give the measured inhibition at 2 µM of O=c1c2sccc2nc2n1CCN(Cc1ccccc1C(F)(F)F)CC2 [UCSD-0801403] .
0

Give the measured inhibition at 2 µM of CC(=O)Nc1nc(C(=O)N2CCCC(n3cncn3)C2)cs1 (stereo not drawn) [UCSD-0843277] .
-7.07

Give the measured inhibition at 2 µM of COc1cccc(-c2noc(C3CCN(Cc4cn(C)nc4C)C3)n2)c1 (stereo not drawn) [UCSD-0839537] .
5.3

Give the measured inhibition at 2 µM of CC(C)(C)c1nc(CN2CCCC(Cn3cncn3)C2)cs1 (stereo not drawn) [UCSD-0846727] .
5.83

Give the measured inhibition at 2 µM of Cc1ccc2cc(C3(O)CCN(C(=O)CSC(C)C)CC3)ccc2n1 [UCSD-0827397] .
33.3

Give the measured inhibition at 2 µM of Cc1ccc(NC(=O)CNC(C)CN2CCCCC2)c(F)c1 (stereo not drawn) [UCSD-0831198] .
-1.94

Give the measured inhibition at 2 µM of COc1cccc(CN2CCCC2c2ccc[nH]2)c1 (stereo not drawn) [UCSD-0808841] .
-1.63

Give the measured inhibition at 2 µM of Cc1ccc(-c2ccc(C3CNCCO3)nc2)cc1 (stereo not drawn) [UCSD-0802459] .
25.3
